B1: CPXM2 (parent)
chain: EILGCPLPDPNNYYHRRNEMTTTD

Variants of: B1
Assay: protein stability index of a GFP-peptide fusion (GPS, HEK-293T) (PSI 1-6); higher = more stable;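 further: lentivirally expressed fusions sorted by FACS into six bins by GFP to DsRed ratio, PSI derived from sequencing read proportions per bin multiplied by bin number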
Conditions: c terminus: a fixed tail appended
EXPERIMENTAL_READOUT: protein stability index

- MUTATION_CODE: "T22N"
  EXPERIMENTAL_READOUT: "protein stability index"
  EXPERIMENTAL_VALUE: 3.47
- MUTATION_CODE: "Y13E"
  EXPERIMENTAL_READOUT: "protein stability index"
  EXPERIMENTAL_VALUE: 4.29
- MUTATION_CODE: "Y13Q"
  EXPERIMENTAL_READOUT: "protein stability index"
  EXPERIMENTAL_VALUE: 4.06
- MUTATION_CODE: "D9W"
  EXPERIMENTAL_READOUT: "protein stability index"
  EXPERIMENTAL_VALUE: 2.44
- MUTATION_CODE: "N12G"
  EXPERIMENTAL_READOUT: "protein stability index"
  EXPERIMENTAL_VALUE: 2.85
- MUTATION_CODE: "D24S"
  EXPERIMENTAL_READOUT: "protein stability index"
  EXPERIMENTAL_VALUE: 3.27
- MUTATION_CODE: "L3Q"
  EXPERIMENTAL_READOUT: "protein stability index"
  EXPERIMENTAL_VALUE: 4.13
- MUTATION_CODE: "D24R"
  EXPERIMENTAL_READOUT: "protein stability index"
  EXPERIMENTAL_VALUE: 3.07
- MUTATION_CODE: "G4V"
  EXPERIMENTAL_READOUT: "protein stability index"
  EXPERIMENTAL_VALUE: 3.41
- MUTATION_CODE: "G4R"
  EXPERIMENTAL_READOUT: "protein stability index"
  EXPERIMENTAL_VALUE: 3.73
- MUTATION_CODE: "P10R"
  EXPERIMENTAL_READOUT: "protein stability index"
  EXPERIMENTAL_VALUE: 3.49
- MUTATION_CODE: "R17F"
  EXPERIMENTAL_READOUT: "protein stability index"
  EXPERIMENTAL_VALUE: 2.48
- MUTATION_CODE: "E19A"
  EXPERIMENTAL_READOUT: "protein stability index"
  EXPERIMENTAL_VALUE: 2.89
- MUTATION_CODE: "D24Q"
  EXPERIMENTAL_READOUT: "protein stability index"
  EXPERIMENTAL_VALUE: 2.91
- MUTATION_CODE: "T21W"
  EXPERIMENTAL_READOUT: "protein stability index"
  EXPERIMENTAL_VALUE: 1.65
- MUTATION_CODE: "R16L"
  EXPERIMENTAL_READOUT: "protein stability index"
  EXPERIMENTAL_VALUE: 3.28
- MUTATION_CODE: "H15Q"
  EXPERIMENTAL_READOUT: "protein stability index"
  EXPERIMENTAL_VALUE: 3.96
- MUTATION_CODE: "N18Q"
  EXPERIMENTAL_READOUT: "protein stability index"
  EXPERIMENTAL_VALUE: 3.7
- MUTATION_CODE: "P6R"
  EXPERIMENTAL_READOUT: "protein stability index"
  EXPERIMENTAL_VALUE: 2.84
- MUTATION_CODE: "H15L"
  EXPERIMENTAL_READOUT: "protein stability index"
  EXPERIMENTAL_VALUE: 3.21
- MUTATION_CODE: "Y14F"
  EXPERIMENTAL_READOUT: "protein stability index"
  EXPERIMENTAL_VALUE: 3.69
- MUTATION_CODE: "N12K"
  EXPERIMENTAL_READOUT: "protein stability index"
  EXPERIMENTAL_VALUE: 2.77
- MUTATION_CODE: "T21C"
  EXPERIMENTAL_READOUT: "protein stability index"
  EXPERIMENTAL_VALUE: 2.92
- MUTATION_CODE: "C5R"
  EXPERIMENTAL_READOUT: "protein stability index"
  EXPERIMENTAL_VALUE: 3.54
- MUTATION_CODE: "E19R"
  EXPERIMENTAL_READOUT: "protein stability index"
  EXPERIMENTAL_VALUE: 3.16
- MUTATION_CODE: "T21R"
  EXPERIMENTAL_READOUT: "protein stability index"
  EXPERIMENTAL_VALUE: 3.05
- MUTATION_CODE: "E19I"
  EXPERIMENTAL_READOUT: "protein stability index"
  EXPERIMENTAL_VALUE: 2.19
- MUTATION_CODE: "C5E"
  EXPERIMENTAL_READOUT: "protein stability index"
  EXPERIMENTAL_VALUE: 4.07
- MUTATION_CODE: "H15P"
  EXPERIMENTAL_READOUT: "protein stability index"
  EXPERIMENTAL_VALUE: 3.64
- MUTATION_CODE: "E1I"
  EXPERIMENTAL_READOUT: "protein stability index"
  EXPERIMENTAL_VALUE: 2.52
